Biological target: NRAS Q61R (Homo sapiens, UniProt P01111+P62937, Q61R)
Sequence (P01111 whole entry Q61R): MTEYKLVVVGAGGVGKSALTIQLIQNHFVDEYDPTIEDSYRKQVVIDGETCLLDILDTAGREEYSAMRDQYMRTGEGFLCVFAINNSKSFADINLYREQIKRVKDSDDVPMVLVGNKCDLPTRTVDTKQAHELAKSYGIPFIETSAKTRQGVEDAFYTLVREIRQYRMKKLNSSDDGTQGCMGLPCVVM
Sequence (P62937 whole entry): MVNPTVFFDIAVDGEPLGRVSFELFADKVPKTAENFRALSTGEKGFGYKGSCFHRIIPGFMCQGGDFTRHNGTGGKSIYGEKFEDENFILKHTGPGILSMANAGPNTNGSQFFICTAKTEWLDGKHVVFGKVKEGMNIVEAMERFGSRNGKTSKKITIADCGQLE
Assay: Ras-Raf disruption / FRET / MOA assay (BRAF RBD)
Format: biochemical
measurement label: IC50

CCn1c(-c2cccnc2[C@H](C)OC)c2c3cc(ccc31)-c1cc(O)cc(c1)C[C@H](NC(=O)[C@H](C(C)C)N(C)C(=O)C13CC(CN1C(=O)[C@@H]1CN1)C3)C(=O)N1CCC[C@H](N1)C(=O)OCC(C)(C)C2 ... 0.1 to 1 µM

Proceed to the following item.
// lookup IC50 for CCn1c(-c2cccnc2[C@H](C)OC)c2c3cc(ccc31)-c1cc(O)cc(c1)C[C@H](NC(=O)[C@H](C(C)C)N(C)C(=O)CN(C)C(=O)[C@]1(C)CN1)C(=O)N1CCC[C@H](N1)C(=O)OCC(C)(C)C2
0.1 to 1 µM
